- Test system: MFM-223
- Test Protocol: normalised viability (% of control), CellTiter-Blue; higher = more viable cells (about 100 = DMSO control)
- Run Conditions: 10 nM; incubation time: 72 h
Endpoint Label: normalised viability (%)
Please state the figure in %; there is no need to write the unit.

# annotated cases, reported normalised viability shown
Compound	Reported Result
NCC(=O)CCC(=O)O	92.2
Oc1nc(-c2ccc(C(F)(F)F)cc2)nc2c1CSCC2	110
CCC1(c2ccc(N)cc2)CCC(=O)NC1=O (stereo unspecified) [Aminoglutethimide]	97
COc1cc([C@@H]2c3cc4c(cc3[C@@H](O[C@@H]3O[C@@H]5CO[C@@H](C)O[C@H]5[C@H](O)[C@H]3O)[C@H]3COC(=O)[C@H]23)OCO4)cc(OC)c1O [Etoposide]	99.2

Task: normalised viability for O=P1(NCCCl)OCCCN1CCCl (stereo unspecified) [Ifosfamide] ?
Result: 87.1

Task: Now this one: `CNCc1ccc(-c2[nH]c3cc(F)cc4c3c2CCNC4=O)cc1`
Result: 95.4

====

- System: MFM-223
- Test Protocol: drug sensitivity score (DSS), CellTiter-Blue viability (DSS (AUC-based score)); higher = stronger viability inhibition; extreme values may be limits of the assay
- Run Conditions: incubation time: 72 h
Binary classification by drug sensitivity score, with 1 as an inclusive lower bound for True; all other cases are False.

Example cases with answers are listed next.
Compound	Assigned Label
CCC1=C[C@@H]2CN(C1)Cc1c([nH]c3ccccc13)[C@@](C(=O)OC)(c1cc3c(cc1OC)N(C)[C@H]1[C@@](O)(C(=O)OC)[C@H](OC(C)=O)[C@]4(CC)C=CCN5CC[C@]31[C@@H]54)C2 [Vinorelbine]	True
CN[C@@H]1C[C@H]2O[C@@](C)([C@@H]1OC)n1c3ccccc3c3c4c(c5c6ccccc6n2c5c31)C(=O)N[C@H]4O [UCN-01]	True
N.N.[Cl][Pt][Cl] [Cisplatin]	False

Task: Is the recorded value of drug sensitivity score equal to or greater than 1 for this compound? C[C@]12CC[C@@H]3c4ccc(O)cc4C[C@@H](CCCCCCCCC[S+]([O-])CCCC(F)(F)C(F)(F)F)[C@H]3[C@@H]1CC[C@@H]2O (some centres undefined) [Fulvestrant]
Result: True

Task: Now this one: NC(=O)Nc1cc(-c2cccc(F)c2)sc1C(=O)N[C@H]1CCCNC1 [AZD 7762]
Result: False

Task: Now this one: CO[C@H]1/C=C\C=C(/C)C(=O)NC2=CC(=O)C(NCCN(C)C)=C(C[C@@H](C)C[C@H](OC)[C@H](O)[C@@H](C)/C=C(\C)[C@@H]1OC(N)=O)C2=O [Alvespimycin]
Result: True

Task: Now this one: O=C1CCC(N2C(=O)c3ccccc3C2=O)C(=O)N1 (centres undefined) [Thalidomide]
Result: False

Task: Now this one: CC1(C)NC(=O)N(c2ccc([N+](=O)[O-])c(C(F)(F)F)c2)C1=O [Nilutamide]
Result: False

Task: Now this one: Cn1c(CCCC(=O)O)nc2cc(N(CCCl)CCCl)ccc21 [Bendamustine]
Result: False

====

- Test system: HCC1599
- Test Protocol: normalised viability (% of control), CellTiter-Blue; higher = more viable cells (about 100 = DMSO control)
- Run Conditions: 10 nM; incubation time: 72 h
Endpoint Label: normalised viability (%)
Please state the figure in %; there is no need to write the unit.

# annotated cases, reported normalised viability shown
Molecule	normalised viability [%]
Cn1c(CCCC(=O)O)nc2cc(N(CCCl)CCCl)ccc21	115
CCC1(c2ccc(N)cc2)CCC(=O)NC1=O (stereo not given) [Aminoglutethimide]	90.8
CN[C@@H]1C[C@H]2O[C@@](C)([C@@H]1OC)n1c3ccccc3c3c4c(c5c6ccccc6n2c5c31)C(=O)N[C@H]4O	81.1
CC(C)Cn1cnc2c(N)nc3ccccc3c21	102

Now consider the entry below.
Task: normalised viability for O=P1(NCCCl)OCCCN1CCCl (stereo not given) [Ifosfamide] ?
Result: 100

====

- System: MDA-MB-436
- Test Protocol: normalised response (% of control), CellTiter-Glo; higher = more viable cells (100 = DMSO, 0 = benzethonium chloride kill control)
- Run Conditions: incubation time: 72 h
Overview of reported normalised response across a group of compounds:
Please state the figure in %; there is no need to write the unit.

# annotated cases, reported normalised response shown
Compound	Tested On	normalised response, %
COc1cc([C@@H]2c3cc4c(cc3[C@@H](O[C@@H]3O[C@@H]5CO[C@@H](C)O[C@H]5[C@H](O)[C@H]3O)[C@H]3COC(=O)[C@H]23)OCO4)cc(OC)c1O [Etoposide] (100 nM)	MDA-MB-436	98.3
CCC1(c2ccc(N)cc2)CCC(=O)NC1=O (centres undefined) [Aminoglutethimide] (100 nM)	MDA-MB-436	98.3
C[C@@H](Oc1cc(-c2cnn(C3CCNCC3)c2)cnc1N)c1c(Cl)ccc(F)c1Cl [Crizotinib] (10 nM)	MDA-MB-436	99

Now consider the entry below.
Task: normalised response for O=P1(NCCCl)OCCCN1CCCl (centres undefined) [Ifosfamide] (100 nM) ?
Result: 94.9

====

Overview of reported drug sensitivity score across a group of molecules:
- System: CAL-120
- Test Protocol: drug sensitivity score (DSS), CellTiter-Blue viability (DSS (AUC-based score)); higher = stronger viability inhibition; extreme values may be limits of the assay
- Run Conditions: incubation time: 72 h
// no unit string in output, number only

# annotated cases, reported drug sensitivity score shown
Molecule	Endpoint Label	Reported Result
CN[C@@H]1C[C@H]2O[C@@](C)([C@@H]1OC)n1c3ccccc3c3c4c(c5c6ccccc6n2c5c31)C(=O)N[C@H]4O	drug sensitivity score	24.2
Clc1ccc(Nc2nnc(Cc3ccncc3)c3ccccc23)cc1	drug sensitivity score	0
CC(C)Cn1cnc2c(N)nc3ccccc3c21	drug sensitivity score	0

Task: drug sensitivity score for `CCN(CCCOc1ccc2c(Nc3cc(CC(=O)Nc4cccc(F)c4)[nH]n3)ncnc2c1)CCOP(=O)(O)O` ?
Result: 8.21

====

- Test system: BT-549
- Test Protocol: normalised viability (% of control), CellTiter-Blue; higher = more viable cells (about 100 = DMSO control)
- Run Conditions: 100 nM; incubation time: 72 h
Endpoint Label: normalised viability (%)
Please state the figure in %; there is no need to write the unit.

# annotated cases, reported normalised viability shown
Compound	Tested On	Units Of Measure	normalised viability
CCC1=C[C@@H]2CN(C1)Cc1c([nH]c3ccccc13)[C@@](C(=O)OC)(c1cc3c(cc1OC)N(C)[C@H]1[C@@](O)(C(=O)OC)[C@H](OC(C)=O)[C@]4(CC)C=CCN5CC[C@]31[C@@H]54)C2 [Vinorelbine]	BT-549	%	23.4
O=C1CCC(N2C(=O)c3ccccc3C2=O)C(=O)N1 (centres undefined) [Thalidomide]	BT-549	%	88
CNCc1ccc(-c2[nH]c3cc(F)cc4c3c2CCNC4=O)cc1 [Rucaparib]	BT-549	%	112
CC1(C)NC(=O)N(c2ccc([N+](=O)[O-])c(C(F)(F)F)c2)C1=O [Nilutamide]	BT-549	%	99.6
N.N.[Cl][Pt][Cl] [Cisplatin]	BT-549	%	105

Task: Form field - read-out: normalised viability; system: BT-549; submitted item: NCC(=O)CCC(=O)O [Aminolevulinic acid]
Result: 104

Task: Now this one: CN(C)/N=N/c1[nH]cnc1C(N)=O [Dacarbazine]
Result: 99.4

Task: Now this one: C[C@@H](Oc1cc(-c2cnn(C3CCNCC3)c2)cnc1N)c1c(Cl)ccc(F)c1Cl [Crizotinib]
Result: 95.2

Task: Now this one: C#Cc1cccc(Nc2ncnc3cc(OCCOC)c(OCCOC)cc23)c1 [Erlotinib]
Result: 110

====

- System: BT-474
- Test Protocol: normalised viability (% of control), CellTiter-Blue; higher = more viable cells (100 = DMSO, 0 = benzethonium chloride kill control)
- Run Conditions: incubation time: 72 h
Endpoint Label: normalised viability (%)
Please state the figure in %; there is no need to write the unit.

# annotated cases, reported normalised viability shown
Molecule	normalised viability / %
CCN(CCCOc1ccc2c(Nc3cc(CC(=O)Nc4cccc(F)c4)[nH]n3)ncnc2c1)CCOP(=O)(O)O [Barasertib] (0.1 nM)	109
Cn1c(Nc2ccc(C(F)(F)F)cc2)nc2cc(Oc3ccnc(-c4ncc(C(F)(F)F)[nH]4)c3)ccc21 [RAF265] (0.1 nM)	102
CN[C@@H]1C[C@H]2O[C@@](C)([C@@H]1OC)n1c3ccccc3c3c4c(c5c6ccccc6n2c5c31)C(=O)N[C@H]4O [UCN-01] (1 nM)	99.2
N.N.[Cl][Pt][Cl] [Cisplatin] (1 nM)	109
Cc1ccc(-n2nc(C(C)(C)C)cc2NC(=O)Nc2ccc(OCCN3CCOCC3)c3ccccc23)cc1 [Doramapimod] (1 nM)	112

Task: Form field - read-out: normalised viability; system: BT-474; submitted item: O=C1CCC(N2C(=O)c3ccccc3C2=O)C(=O)N1 (stereo unspecified) [Thalidomide] (1 nM)
Result: 76.9
